- TEST_TARGET: κOR (Homo sapiens)
- Construct: host or cells: CHO-K1
- Sequence (P41145 whole entry): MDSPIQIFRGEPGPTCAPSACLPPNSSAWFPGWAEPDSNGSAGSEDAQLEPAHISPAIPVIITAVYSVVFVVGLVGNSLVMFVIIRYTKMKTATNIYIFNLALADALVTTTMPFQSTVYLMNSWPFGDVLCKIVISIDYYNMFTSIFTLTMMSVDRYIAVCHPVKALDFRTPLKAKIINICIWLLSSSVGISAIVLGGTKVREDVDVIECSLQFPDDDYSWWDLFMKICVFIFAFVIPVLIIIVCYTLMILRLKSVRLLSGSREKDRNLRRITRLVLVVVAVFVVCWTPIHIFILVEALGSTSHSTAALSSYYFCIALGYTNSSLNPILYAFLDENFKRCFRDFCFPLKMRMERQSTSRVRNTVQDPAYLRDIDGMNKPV
- ASSAY_TEXT: cell-based
- Format: cell-based
- CONDITIONS: read-out: κOR cAMP inhibition Emax ± SEM (%)
OBSERVED_PROPERTY: Emax (%)
The figure you give is taken to be in %; do not add the unit.

// solved cases for Emax follow
MOLECULE: C/C=C1/CN2CC[C@]34C(=C(C(=O)OC)[C@H]1C[C@H]23)Nc1ccccc14 [Compound 1, Akuammicine, reference compound]
Emax, %: 91
--
MOLECULE: CCC1CN2CCC34C(=C(C(=O)OC)C1CC23)Nc1ccc(Br)cc14 (stereo not drawn) [Compound 27, 10-Bromo-19,20-dihydroakuammicine]
Emax, %: 100
--
MOLECULE: CC=C1C[N+]2(CC3CC3)CCC34C(=C(C(=O)OC)C1CC32)Nc1ccccc14 (stereo not drawn)
Emax, %: 113
--
MOLECULE: C/C=C1/CN2CC[C@]34C(=C(C(=O)OC)[C@H]1C[C@H]23)Nc1ccc(-c2ccoc2)cc14
Emax, %: 102
--
MOLECULE: C/C=C1/C[N+]2(CC3CC3)CC[C@]34C(=C(C(=O)OC)[C@H]1C[C@@H]32)Nc1ccc(Br)cc14 (stereo partly drawn)
Emax, %: 94

Continue with the molecule presented below.
IN: State its Emax for this molecule: CC=C1C[N+]2(C)CCC34C(=C(C(=O)OC)C1CC32)Nc1ccc(Br)cc14 (stereo not drawn)
OUT: 102
